# Test system: SF-268
# test.protocol: Growth inhibition of human SF268 cells at 10 uM after 48 hrs by SRB assay relative to control
# Type: functional
# test.conditions: SF-268, 48 h, read-out: GI
// label = Condition met if inhibition of growth at 10 µM is not less than 30%, otherwise Condition not met

Assess whether reported inhibition of growth at 10 µM for COc1cc(NC(=O)c2cccc(-c3cc(=O)c4c(OC)c(OC)c(OC)cc4o3)c2)cc(OC)c1OC sits at 30% or higher.
Condition met

###

# Tested on: SNB-75
# test.protocol: Growth inhibition of human SNB75 cells at 10 uM after 48 hrs by SRB assay relative to control
# Format: functional
# test.conditions: SNB-75, 48 h, read-out: GI
observable: inhibition of growth at 10 µM (%)
Please give a number only; it is taken to be in %.

Worked cases, answers included:
>  <entry.smiles>
COc1ccccc1NC(=O)c1cccc(-c2cc(=O)c3c(OC)c(OC)c(OC)cc3o2)c1

>  <measurement.unit>
%

>  <inhibition of growth at 10 µM>
30.1

$$$$
>  <entry.smiles>
COc1ccc(NC(=O)c2cccc(-c3cc(=O)c4c(O)c(OC)c(OC)cc4o3)c2)cc1

>  <measurement.unit>
%

>  <inhibition of growth at 10 µM>
105

$$$$
>  <entry.smiles>
COc1cc2oc(-c3cccc(NC(=O)c4ccc5c(c4)OCO5)c3)cc(=O)c2c(O)c1OC

>  <measurement.unit>
%

>  <inhibition of growth at 10 µM>
47.6

$$$$

Quick check: inhibition of growth at 10 µM of COc1cc2oc(-c3cccc(C(=O)Nc4ccc5c(c4)OCO5)c3)cc(=O)c2c(O)c1OC ?
15.4

###

Quick reference for inhibition of growth at 10 µM among some molecules
# System: MDA-MB-468
# test.protocol: Growth inhibition of human MDA-MB-468 cells at 10 uM after 48 hrs by SRB assay relative to control
# Format: functional
# test.conditions: MDA-MB-468, 48 h, read-out: GI
Please give a number only; it is taken to be in %.

Worked cases, answers included:
>  <entry.smiles>
COc1ccc(C(=O)Nc2cccc(-c3cc(=O)c4c(OC)c(OC)c(OC)cc4o3)c2)cc1

>  <subject.of.test>
MDA-MB-468

>  <measurement.unit>
%

>  <inhibition of growth at 10 µM>
24.8

$$$$
>  <entry.smiles>
Cc1ccc(NC(=O)c2ccc(CN3CCN(C)CC3)cc2)cc1Nc1nccc(-c2cccnc2)n1

>  <subject.of.test>
MDA-MB-468

>  <measurement.unit>
%

>  <inhibition of growth at 10 µM>
29.1

$$$$
>  <entry.smiles>
COc1cc2oc(-c3cccc(NC(=O)c4ccc5c(c4)OCO5)c3)cc(=O)c2c(OC)c1OC

>  <subject.of.test>
MDA-MB-468

>  <measurement.unit>
%

>  <inhibition of growth at 10 µM>
24.5

$$$$

Quick check: inhibition of growth at 10 µM of COc1ccccc1NC(=O)c1cccc(-c2cc(=O)c3c(OC)c(OC)c(OC)cc3o2)c1 ?
24.3

Quick check: inhibition of growth at 10 µM of COc1ccc(C(=O)Nc2cccc(-c3cc(=O)c4c(O)c(OC)c(OC)cc4o3)c2)cc1 ?
-6.18

###

Quick reference for inhibition of growth at 10 µM among some compounds
# Test system: HCT-15
# test.protocol: Growth inhibition of human HCT15 cells at 10 uM after 48 hrs by SRB assay relative to control
# Format: functional
# test.conditions: HCT-15, 48 h, read-out: GI
Please give a number only; it is taken to be in %.

>  <entry.smiles>
COc1cccc(C(=O)Nc2cccc(-c3cc(=O)c4c(O)c(OC)c(OC)cc4o3)c2)c1

>  <readout.number>
58.4

$$$$
>  <entry.smiles>
COc1cc(NC(=O)c2cccc(-c3cc(=O)c4c(OC)c(OC)c(OC)cc4o3)c2)cc(OC)c1OC

>  <readout.number>
59.3

$$$$
>  <entry.smiles>
COc1cc2oc(-c3cccc(NC(=O)c4ccc5c(c4)OCO5)c3)cc(=O)c2c(OC)c1OC

>  <readout.number>
67.9

$$$$

Quick check: inhibition of growth at 10 µM of COc1ccc(NC(=O)c2cccc(-c3cc(=O)c4c(OC)c(OC)c(OC)cc4o3)c2)cc1 ?
52.9

Quick check: inhibition of growth at 10 µM of COc1ccccc1C(=O)Nc1cccc(-c2cc(=O)c3c(O)c(OC)c(OC)cc3o2)c1 ?
3.51
